Biological target: human recombinant PTP1B (1–302) (Homo sapiens, UniProt P18031)
Construct: human recombinant PTP1B (1–302)
Sequence (P18031 1-302): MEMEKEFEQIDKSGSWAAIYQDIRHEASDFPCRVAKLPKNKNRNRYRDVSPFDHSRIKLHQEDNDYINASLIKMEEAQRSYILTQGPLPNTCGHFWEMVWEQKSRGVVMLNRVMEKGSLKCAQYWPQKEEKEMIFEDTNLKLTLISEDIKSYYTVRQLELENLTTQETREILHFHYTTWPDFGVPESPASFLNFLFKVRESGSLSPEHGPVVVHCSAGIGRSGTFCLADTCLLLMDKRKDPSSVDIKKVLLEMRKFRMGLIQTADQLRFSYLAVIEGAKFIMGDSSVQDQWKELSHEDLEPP
Assay: PTP1B enzymatic assay (p-NPP hydrolysis; preliminary screening and IC50)
Type: biochemical
Conditions: 20 µM of each compound, 30 min
property: Effect on PTP1B activity in preliminary screening

CCCCC[C@H](O)[C@H](O)CC[C@@H](O)CCCC [Compound 4b, (5S,8R,9S)-tetradecane-5,8,9-triol] ... loss of activity
CCCCC[C@@H](O)[C@@H](O)CC[C@H](CCCC)OC(C)=O (relative stereo) [Compound 7a] ... loss of activity
CCCCC[C@@H](O)[C@H](CC[C@H](CCCC)OC(C)=O)OP(=O)(O)O (relative stereo) [Compound 9a] ... reducing PTP1B activity
CCCCC[C@H](O)[C@@H](CC[C@H](CCCC)OC(C)=O)OP(=O)(O)O (relative stereo) [Compound 9b] ... reducing PTP1B activity
CCCCC[C@@H](O)[C@@H](O)CC[C@@H](O)CCCC [Compound 4a, (5S,8S,9R)-tetradecane-5,8,9-triol] ... loss of activity

-- ask I am curious: what Effect on PTP1B activity in preliminary screening value has been reported for CCCCC[C@H](OP(=O)(O)O)[C@H](O)CC[C@H](CCCC)OC(C)=O (relative stereo) [Compound 8b] ?
-- reply reducing PTP1B activity

-- ask I am curious: what Effect on PTP1B activity in preliminary screening value has been reported for CCCCC[C@H](O)[C@H](O)CC[C@H](CCCC)OC(C)=O (relative stereo) [Compound 7b] ?
-- reply loss of activity

###

Molecular target: human recombinant PTP1B (1–302) (Homo sapiens, UniProt P18031)
Construct: human recombinant PTP1B (1–302)
Test: PTP1B enzymatic assay (p-NPP hydrolysis; preliminary screening and IC50)
Assay type: biochemical
Conditions: 20 µM of each compound, 30 min
property: Effect on PTP1B activity in preliminary screening

CCCCC[C@@H](OP(=O)(O)O)[C@@H](O)CC[C@H](CCCC)OC(C)=O (relative stereo) ... reducing PTP1B activity
CCCCCCCCCCCCCCC(OP(=O)(O)O)C(O)CCCO (stereo not drawn) ... reducing PTP1B activity

###

Attribute: IC50
Target: human recombinant PTP1B (1–302) (Homo sapiens)
Construct: human recombinant PTP1B (1–302)
Assay: PTP1B enzymatic assay (p-NPP hydrolysis; preliminary screening and IC50)
Conditions: 2.5 mM p-NPP, pH 7.0, 37 °C, mean ± SD (n = 3); read-out: IC50 values determined on PTP1B
Please give a number only; it is taken to be in µM.

Recorded IC50, per entry:
CCCCCCCCCCCCCCC(OP(=O)(O)O)C(O)CCCO (stereo not drawn) [Compound 3] ... 6.7
CCCCC[C@@H](O)[C@H](CC[C@H](CCCC)OC(C)=O)OP(=O)(O)O (relative stereo) [Compound 9a] ... 83
CCCCCCCCCCCCCCC(OP(=O)(O)O)C(O)CCC(O)C(O)CCC(O)CCCCCCC(=O)NCC(=O)O (stereo not drawn) [Phosphoeleganin, phosphoeleganin] ... 0.7
CCCCC[C@H](OP(=O)(O)O)[C@H](O)CC[C@H](CCCC)OC(C)=O (relative stereo) [Compound 8b] ... 37.1
CCCCC[C@@H](OP(=O)(O)O)[C@@H](O)CC[C@H](CCCC)OC(C)=O (relative stereo) [Compound 8a] ... 16

-- ask I am curious: what IC50 value has been reported for CCCCC[C@H](O)[C@@H](CC[C@H](CCCC)OC(C)=O)OP(=O)(O)O (relative stereo) [Compound 9b] ?
-- reply 63
